Provenance of the data: PubChem BioAssay

Tested on: Inhibin beta A chain (activin A)
Assay: INHBA (activin A) binders on microarrays, primary screen, biochemical, small-molecule microarray, 635 nm fluorescence scan (AID 1107);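 further: mouse activin A protein probed at 4.33 µg/mL on printed slides; score merges bound-protein fluorescence near 667 nm with spot signal-to-noise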
Conditions: small-molecule microarray binding, higher = more signal
Binary call on composite z-score: rule met from 0.6 upward, rule not met beneath that.

>  <Compound>
CC(C)CNC(=O)[C@@]1(C)c2ccccc2C(=O)N(Cc2ccc(OC(F)(F)F)cc2)[C@H]1c1ccc(CO)cc1

>  <Class>
rule not met

$$$$
>  <Compound>
COC(=O)C[C@H]1O[C@]2(C(=O)N(C)c3ccccc32)[C@@H](C)[C@@H]1[Si](C)(C)c1ccc(OC)cc1

>  <Class>
rule not met

$$$$
>  <Compound>
O=C1NC(=O)C2C1C=CC(C(O)C=Cc1ccc([N+](=O)[O-])cc1)N2Nc1ccccn1 (stereo unspecified)

>  <Class>
rule met

$$$$
>  <Compound>
C=CCC(OC(C)=O)[C@@H]1[C@@H](N(Cc2cccc3ccccc23)C(=O)Cc2ccc(F)cc2)c2cc(OCCCO)ccc2N1C(=O)Cc1ccc2ccccc2c1 (stereo partly specified)

>  <Class>
rule met

$$$$
>  <Compound>
Cc1ccc(S[C@]2(C(=O)NCCCN(C)C)CC(=O)N(C3CCCCC3)[C@@H]2c2ccc(CO)cc2I)cc1

>  <Class>
rule met

$$$$
>  <Compound>
O=C1OCC=C[C@H]2OC34C=CCN(Cc5ccccc5)C(=O)[C@H]3N(CCO)C(=O)[C@@H]4[C@@H]12 (stereo partly specified)

>  <Class>
rule not met

$$$$
>  <Compound>
O=C1C2C=CC(C(O)c3ccccc3)N(n3cnnc3)C2C(=O)N1Cc1ccccc1 (stereo unspecified)

>  <Class>
rule met

$$$$
>  <Compound>
Cc1ccc(N2C(=O)c3ccccc3[C@@H](C(=O)NCC(F)(F)F)[C@@H]2c2ccc(CO)cc2)nc1

>  <Class>
rule not met

$$$$
>  <Compound>
CC(=O)Nc1ccc([C@H]2[C@H](C)CC[C@H]3C(=O)N4[C@@H](CC[C@@H](C)[C@@H]4c4ccc(NC(C)=O)cc4)C(=O)N32)cc1

>  <Class>
rule not met

$$$$
>  <Compound>
C=C(COC)/C(=C/C[C@@H](OC(=O)c1ccncc1)c1ccc(OCCO)cc1)c1cc(C(=O)OC)ccc1OC

>  <Class>
rule not met

$$$$
>  <Compound>
C=C(CCCC)/C(=C/C[C@H](OC(=O)c1ccncc1)c1cccc(OCCO)c1)c1cc(C(=O)OC)ccc1OC

>  <Class>
rule met

$$$$
>  <Compound>
CC(C)=C1C(=O)C(c2ccccc2)=C2CN3C(=O)N(CCc4ccccc4)C(=O)[C@]3(Cc3ccccc3)[C@H]21

>  <Class>
rule met

$$$$
>  <Compound>
CC(C)C[C@@H]1NC(=O)[C@H]2C[C@@H](C(=O)NCCCCCC[N+](C)(C)C)[C@@H](c3ccc(O)cc3)N2C1=O

>  <Class>
rule not met

$$$$
>  <Compound>
Cc1ccc(S[C@]2(C(=O)O)CC(=O)N(Cc3ccccc3)[C@@H]2c2ccc(CO)cc2)cc1

>  <Class>
rule met

$$$$
>  <Compound>
O=C1OCCC/C=C\[C@H]2OC34C=CCN(CCN5CCOCC5)C(=O)[C@H]3N(CCCCCO)C(=O)[C@@H]4C12 (stereo partly specified)

>  <Class>
rule met

$$$$

====

Experiment: modulators of HCV replicon luciferase signal, primary screen, HCV replication inhibitor project, Huh7 cells, luciferase reporter (AID 1109);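 further: huh7 hepatoma cells harbouring a luciferase neomycin HCV replicon reporter; luciferase luminescence as measure of HCV replicon replication; test concentration not given here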
Settings: 48 h, higher = more signal
Recorded endpoint: z-score

>  <Compound>
CCOC(=O)C[C@H]1[C@H](OC(=O)Cc2ccc3c(c2)OCO3)[C@@H](NC(=O)c2ccc3ccccc3c2)c2cc(OCCCO)ccc2N1C(=O)Cc1ccc(OC)cc1

>  <Reported measurement>
-1.74

$$$$
>  <Compound>
COc1cc2c(cc1OC)CN(C(=O)[C@H]1[C@@H]3C(=O)O[C@@H](c4ccccc4)[C@@H](c4ccccc4)N3[C@@H](c3ccc(O)cc3)[C@]13C(=O)Nc1ccc(C#CC4(O)CCCCCC4)cc13)CC2

>  <Reported measurement>
-1.47

$$$$
>  <Compound>
O=C1O[C@@H](c2ccccc2)[C@@H](c2ccccc2)N2[C@@H](c3ccccc3OCCO)[C@]3(C(=O)Nc4ccc(C#CC5=CCCCC5)cc43)[C@@H](C(=O)O)[C@H]12

>  <Reported measurement>
-2.28

$$$$
>  <Compound>
COCCOC(=O)N1C(=O)[C@@]2(c3cc(C#CCNC(N)=O)ccc31)[C@H](c1ccc(OCCO)cc1)N1[C@H](c3ccccc3)[C@H](c3ccccc3)OC(=O)[C@H]1[C@@H]2C(=O)N1CCCCCCC1

>  <Reported measurement>
0.225

$$$$
>  <Compound>
C=CCC(OC(C)=O)[C@@H]1[C@@H](N(Cc2cc3ccccc3o2)C(=O)c2ccc(C)cc2)c2cc(OCCCO)ccc2N1C(=O)c1ccc2ccccc2n1 (some centres not stated)

>  <Reported measurement>
0.725

$$$$
>  <Compound>
CO[C@H]1COC(=O)CC=C[C@H](C)COC(=O)[C@@H](OCc2ccccc2)C=C[C@@H]1C

>  <Reported measurement>
0.165

$$$$
>  <Compound>
COCCOC(=O)N1C(=O)[C@@]2(c3cc(C#CCC(C(=O)OC)C(=O)OC)ccc31)[C@H](c1ccccc1OCCO)N1[C@H](c3ccccc3)[C@H](c3ccccc3)OC(=O)[C@H]1[C@@H]2C(=O)N1CCCCCCC1

>  <Reported measurement>
-2.05

$$$$
>  <Compound>
O=C1NC(=O)C2C1C=CC(C(O)C=Cc1ccc([N+](=O)[O-])cc1)N2Nc1ccccn1 (configuration not stated)

>  <Reported measurement>
0.807

$$$$
>  <Compound>
COCCOC(=O)N1C(=O)[C@@]2(c3cc(C#CCC(C(=O)OC)C(=O)OC)ccc31)[C@H](C(=O)N1CCN(c3ncccn3)CC1)[C@H]1C(=O)O[C@H](c3ccccc3)[C@H](c3ccccc3)N1[C@@H]2c1ccc(O)cc1

>  <Reported measurement>
-0.513

$$$$
>  <Compound>
COC(=O)Cn1c(C(=O)N2CCCC2)cc2c1C[C@H]1CN(C(=O)c3ccccc3)[C@@](Cc3ccc(OC)cc3)(C(=O)OC)[C@@H]21

>  <Reported measurement>
-1.21

$$$$
>  <Compound>
C#CCCCON=C1C[C@@H](O)[C@@H](O)[C@@H]2[C@@H]3C(=O)N(Cc4ccc5c(c4)OCO5)C(=O)[C@@H]3CC[C@H]12

>  <Reported measurement>
-0.0463

$$$$
>  <Compound>
CO[C@H]1O[C@H](CO)[C@@H](OC(=O)Nc2ccc3c(c2)OCO3)[C@H](OC(=O)Nc2ccccc2)[C@@H]1OC(=O)Nc1ccccc1

>  <Reported measurement>
-1.69

$$$$
